System: DLD-1 colon
experimental-details: NCI tumour cell line growth inhibition, 48 h
Kindly state TGI for each of the entries shown.
Answers are plain numbers, in µM.

>>> reported_result("Cc1ccccc1-n1c2nc(=O)n(C)c(=O)c-2nc2ccccc21")
42.4

Continue with the molecule presented below.
For CCN(CC)CCNc1ccc2nnn3c4ccc(O)cc4c(=O)c1c23 , what is its reported TGI?
17.5

----------
Tested on: KM12 colon
experimental-details: NCI tumour cell line growth inhibition, 48 h; in the data active = GI50 below about 0.43 µM; inactive = the rest
Pick one: T for active, F for inactive

Here's what some known entries look like.
>>> label("COc1ccc2nc3cc(Cl)ccc3c(Sc3ccc([N+](=O)[O-])cc3)c2c1")
"F"
>>> label("COc1cc(C(=O)Nc2cc(OC)c3ccn(C)c3c2)cc2c1C[C@]1(C)CC[C@@H](O)C(C)(C)[C@H]1O2")
"F"
>>> label("COc1cc(-c2c(C#N)c(N)nc(N3CCOCC3)c2C#N)cc(OC)c1OC")
"F"
>>> label("O=C1c2ccccc2-c2c1c1ccccc1c(=O)n2CCCNCCCCNCCCN1C(=O)c2ccccc2C2C(=O)c3ccccc3C21 (stereo unspecified)")
"T"
>>> label("CCCCCCCCCCCCCCCCC(=O)O.CCCCCCCCCCCCCCCCCC(=O)O.CCCCCCCCCCCCCCCCCC(=O)O.CCCCCCCCCCCCCCCCCC(=O)O.CCCCCCCCCCCCCCCCCC(=O)O.CO[CH-]OC12COC1CC(O)C1(C)C(O)C(OC(C)O)C3=C(C)C(OC(=O)C(O)C([NH-])c4ccccc4)CC(O)(C(OC(=O)c4ccccc4)C21)C3(C)C.[Cu+].[Zn].[Zn].[Zn].[Zn].[Zn] (stereo unspecified)")
"T"

I'd appreciate the recorded outcome for CC(=O)OC12COC1CC(O)C1(C)C(=O)C(O)C3=C(C)C(O)CC(O)(C(OC(=O)c4ccccc4)C21)C3(C)C (stereo unspecified) from this test.
F

Where these numbers come from: PubChem BioAssay (NCI)
